- systemTested: wild type PKR (Homo sapiens, UniProt P30613)
- Sequence (P30613 whole entry): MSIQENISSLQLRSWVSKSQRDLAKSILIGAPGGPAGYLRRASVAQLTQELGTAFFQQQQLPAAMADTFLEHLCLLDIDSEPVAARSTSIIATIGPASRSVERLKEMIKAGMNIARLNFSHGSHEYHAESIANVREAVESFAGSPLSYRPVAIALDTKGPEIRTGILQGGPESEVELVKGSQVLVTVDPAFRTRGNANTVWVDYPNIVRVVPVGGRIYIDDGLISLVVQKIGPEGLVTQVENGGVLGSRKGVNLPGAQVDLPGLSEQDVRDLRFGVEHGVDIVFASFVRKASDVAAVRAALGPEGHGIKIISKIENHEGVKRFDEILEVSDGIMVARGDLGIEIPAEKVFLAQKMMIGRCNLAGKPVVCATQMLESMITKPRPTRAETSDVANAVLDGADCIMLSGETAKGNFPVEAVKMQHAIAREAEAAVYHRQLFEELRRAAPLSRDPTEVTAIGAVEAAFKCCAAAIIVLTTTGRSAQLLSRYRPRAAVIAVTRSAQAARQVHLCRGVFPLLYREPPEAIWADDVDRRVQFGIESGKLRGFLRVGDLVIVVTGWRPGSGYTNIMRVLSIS
- assay: Cell based ATP assay in purified red blood cells (Cell-Titer-Glo)
- Parameters: endogenous in cells; host or cells: purified red blood cells from healthy volunteers
- experimentalConditions: Table 2; RBCs, overnight at 37° C., ATP levels
recordedEndpoint: AC50

# AC50 lookup, item Cc1nc2c(s1)c1cnn(Cc3cccc(F)c3)c(=O)c1n2C > 1 µM

# AC50 lookup, item Cn1c2nc(Cc3cc[nH]n3)sc2c2cnn(Cc3cccc(C#N)c3)c(=O)c21 ≤ 1 µM

# AC50 lookup, item COc1cccc(Cn2ncc3c4scnc4n(C)c3c2=O)c1 > 1 µM

# AC50 lookup, item Cc1nc2c(s1)c1cnn(Cc3ccccc3F)c(=O)c1n2C ≤ 1 µM

###

- systemTested: PKR R510Q (Homo sapiens, UniProt P30613, R510Q)
- Sequence (P30613 whole entry R510Q): as the sequence (P30613 whole entry) above, with R510Q counted along it
- assay: PKR mutant assay (R510Q), AC50, LDH/NADH-coupled, absorbance at 340 nm
- Assay type: biochemical
- experimentalConditions: Table 2; enzyme assay; read-out: PK R510Q AC50
- Procedure: Example 11. PKR Mutant Assay PKR or PKR mutant enzyme solution was diluted into a reaction mix, which contains 1× buffer (100 mM KCl, 50 mM Tris pH 7.5, 5 mM MgCl2) as well as PEP (conc depends on enzyme), 180 μM NADH, 0.5 units LDH, 1 mM DTT, 0.03% BSA; final assay concentrations after 1.11 fold dilution are indicated. […] 20 uL ADP was added to start reaction at room temperature and reaction progress was measured as changes in absorbance at 340 nm wavelength at room temperature. […]
recordedEndpoint: AC50

# AC50 lookup, item COc1cccc(Cn2ncc3c4sc(OC)nc4n(C)c3c2=O)c1 < 0.3 µM

# AC50 lookup, item CC(=O)c1cccc(Cn2ncc3c4sc(C)nc4n(C)c3c2=O)c1 < 0.3 µM

# AC50 lookup, item Cn1c2nc(C(N)=O)sc2c2cnn(Cc3cccc(N)n3)c(=O)c21 < 0.3 µM

# AC50 lookup, item Cn1c2nc(Cc3cc[nH]n3)sc2c2cnn(Cc3ccc(C(N)=O)cc3)c(=O)c21 > 0.8 µM

# AC50 lookup, item COc1cccc(Cn2ncc3c4sc(Cc5ccc(Cl)cc5)nc4n(C)c3c2=O)c1 < 0.3 µM

# AC50 lookup, item COc1ccc(Cc2nc3c(s2)c2cnn(Cc4cccc5[nH]ncc45)c(=O)c2n3C)cn1 < 0.3 µM

# AC50 lookup, item COc1ccc(Cn2ncc3c4sc(Cc5cc[nH]n5)nc4n(C)c3c2=O)cc1 < 0.3 µM

# AC50 lookup, item CC(=O)NC(c1cc[nH]n1)c1nc2c(s1)c1cnn(Cc3cccc4[nH]ncc34)c(=O)c1n2C (centres unmarked) > 0.8 µM

###

List of pEC50 values.
- systemTested: PKR R510Q (Homo sapiens, UniProt P30613, R510Q)
- assay: PKR mutant assay (R510Q), AC50, LDH/NADH-coupled, absorbance at 340 nm
- Type: biochemical
- experimentalConditions: Table 4; AC50, enzyme assay; read-out: PK R510Q
- Procedure: Example 11. PKR Mutant Assay PKR or PKR mutant enzyme solution was diluted into a reaction mix, which contains 1× buffer (100 mM KCl, 50 mM Tris pH 7.5, 5 mM MgCl2) as well as PEP (conc depends on enzyme), 180 μM NADH, 0.5 units LDH, 1 mM DTT, 0.03% BSA; final assay concentrations after 1.11 fold dilution are indicated. […] 20 uL ADP was added to start reaction at room temperature and reaction progress was measured as changes in absorbance at 340 nm wavelength at room temperature. […]
pEC50: −log10 of the molar value.

Worked cases, pEC50 given:
{"molecule": "Cn1c2nc(Cc3c[nH]nn3)sc2c2cnn(Cc3ccccc3)c(=O)c21 [Compound 273]", "pEC50": "< 6.10"}
{"molecule": "Cn1c2nc(Cc3cncs3)sc2c2cnn(Cc3cccc4[nH]ncc34)c(=O)c21 [Compound 211]", "pEC50": "> 6.52"}
{"molecule": "Cn1c2nc(Cc3n[nH]cc3F)sc2c2cnn(Cc3ccccc3)c(=O)c21 [Compound 382]", "pEC50": "> 6.52"}

In the following, a different molecule is considered.
# pEC50 lookup, item Cn1c2nc(Cn3cccn3)sc2c2cnn(Cc3cccc4[nH]ncc34)c(=O)c21 [Compound 292] > 6.52

###

- systemTested: PKR K410E (Homo sapiens, UniProt P30613, K410E)
- Sequence (P30613 whole entry K410E): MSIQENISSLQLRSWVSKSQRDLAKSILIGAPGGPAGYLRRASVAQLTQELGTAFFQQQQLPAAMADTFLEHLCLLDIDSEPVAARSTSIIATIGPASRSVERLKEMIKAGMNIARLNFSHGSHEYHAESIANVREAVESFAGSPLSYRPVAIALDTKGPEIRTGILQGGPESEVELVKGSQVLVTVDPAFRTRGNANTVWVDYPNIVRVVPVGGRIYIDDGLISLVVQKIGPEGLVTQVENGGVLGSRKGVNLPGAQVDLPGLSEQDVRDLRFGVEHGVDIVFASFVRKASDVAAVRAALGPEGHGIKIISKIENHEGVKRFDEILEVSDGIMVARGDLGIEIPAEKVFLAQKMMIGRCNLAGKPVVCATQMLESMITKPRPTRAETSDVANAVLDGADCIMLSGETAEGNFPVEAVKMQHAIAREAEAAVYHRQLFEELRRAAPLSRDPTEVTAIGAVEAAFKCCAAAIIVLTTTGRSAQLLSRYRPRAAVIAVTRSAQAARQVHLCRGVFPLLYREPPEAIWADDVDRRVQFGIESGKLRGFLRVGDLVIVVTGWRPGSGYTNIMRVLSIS
- assay: PKR mutant assay (K410E), AC50, LDH/NADH-coupled, absorbance at 340 nm
- Format: biochemical
- experimentalConditions: Table 2; enzyme assay
recordedEndpoint: AC50

{"compound": "CNCc1nc2c(s1)c1cnn(Cc3cccc4[nH]ncc34)c(=O)c1n2C", "AC50": "> 800 nM"}
{"compound": "Cc1nc2c(s1)c1cnn(Cc3cccc([N+](=O)[O-])c3)c(=O)c1n2C", "AC50": "> 800 nM"}
{"compound": "COc1cccc(Cn2ncc3c4sc(S(C)(=O)=O)nc4n(C)c3c2=O)c1", "AC50": "< 300 nM"}
{"compound": "Cc1nc2c(s1)c1cnn(Cc3ccc(O)cc3)c(=O)c1n2C", "AC50": "< 300 nM"}
{"compound": "CC(O)c1nc2c(s1)c1cnn(Cc3cccc4[nH]ncc34)c(=O)c1n2C (centres unmarked)", "AC50": "< 300 nM"}

# AC50 lookup, item Cc1nc2c(s1)c1cnn(Cc3cccc(CO)c3)c(=O)c1n2C < 300 nM

# AC50 lookup, item Cn1c2nc(Cc3cc[nH]n3)sc2c2cnn(Cc3cccc(C#N)c3)c(=O)c21 < 300 nM

# AC50 lookup, item COc1ccc(Cn2ncc3c4sc(Cc5cc[nH]n5)nc4n(C)c3c2=O)cc1 < 300 nM

# AC50 lookup, item CC(=O)NC(c1cc[nH]n1)c1nc2c(s1)c1cnn(Cc3cccc4[nH]ncc34)c(=O)c1n2C (centres unmarked) > 800 nM

# AC50 lookup, item COc1cccc(Cn2ncc3c4sc(CC5CCCCC5)nc4n(C)c3c2=O)c1 > 800 nM

# AC50 lookup, item CNc1ccc(Cc2nc3c(s2)c2cnn(Cc4cccc5[nH]ncc45)c(=O)c2n3C)cc1 < 300 nM

# AC50 lookup, item Cn1c2nc(C#N)sc2c2cnn(Cc3csc(N)n3)c(=O)c21 301 to 800 nM

# AC50 lookup, item Cc1nc2c(s1)c1cnn(Cc3ccc4[nH]c(=O)[nH]c4c3)c(=O)c1n2C > 800 nM

# AC50 lookup, item CSc1nc2c(s1)c1cnn(Cc3csc(-n4c(C)ccc4C)n3)c(=O)c1n2C > 800 nM

###

- systemTested: UniProt P30613
- assay: Cell based ATP assay in purified red blood cells (Cell-Titer-Glo)
- Set-up: endogenous in cells; host or cells: purified red blood cells from healthy volunteers
- experimentalConditions: Table 2; RBCs, overnight at 37° C., ATP levels
recordedEndpoint: AC50

{"compound": "Cn1c2nc(C(C(N)=O)c3ccccc3)sc2c2cnn(Cc3cccc4[nH]ncc34)c(=O)c21 (centres unmarked)", "AC50": "≤ 1 µM"}
{"compound": "COc1cccc(Cn2ncc3c4sc(Cc5cc[nH]n5)nc4n(C)c3c2=O)c1", "AC50": "≤ 1 µM"}
{"compound": "Cn1c2nc(Cc3ccc4[nH]ncc4c3)sc2c2cnn(Cc3cccc4[nH]ncc34)c(=O)c21", "AC50": "≤ 1 µM"}

# AC50 lookup, item Cc1nc2c(s1)c1cnn(Cc3cn[nH]c3)c(=O)c1n2C > 1 µM

# AC50 lookup, item Cc1nc2c(s1)c1cnn(Cc3ccc(CO)cc3)c(=O)c1n2C > 1 µM

# AC50 lookup, item COC(=O)C(c1ccccc1)c1nc2c(s1)c1cnn(Cc3cccc4[nH]ncc34)c(=O)c1n2C (centres unmarked) > 1 µM

# AC50 lookup, item Cc1nc2c(s1)c1cnn(Cc3cccc(CO)c3)c(=O)c1n2C ≤ 1 µM

# AC50 lookup, item CC(=O)c1cccc(Cn2ncc3c4sc([S+](C)[O-])nc4n(C)c3c2=O)c1 (centres unmarked) > 1 µM

###

- systemTested: PKR K410E (Homo sapiens, UniProt P30613, K410E)
- assay: PKR mutant assay (K410E), AC50, LDH/NADH-coupled, absorbance at 340 nm
- experimentalConditions: Table 4; AC50, enzyme assay
recordedEndpoint: EC50

Worked cases, EC50 given:
{"compound": "O=c1c2c(cnn1Cc1ccccc1)c1sc(Cc3ccccn3)nc1n2-c1nccs1 [Compound 411]", "recordedEndpoint": "EC50", "dataValue": "> 0.8 µM"}
{"compound": "CS(=O)(=O)c1nc2c(s1)c1cnn(Cc3ccccc3)c(=O)c1n2-c1nccs1 [Compound 410]", "recordedEndpoint": "EC50", "dataValue": "> 0.8 µM"}
{"compound": "Cn1c2nc(Cn3cncn3)sc2c2cnn(Cc3cccc4[nH]ncc34)c(=O)c21 [Compound 293]", "recordedEndpoint": "EC50", "dataValue": "< 0.3 µM"}
{"compound": "Cn1c2nc(Cc3cc[nH]n3)sc2c2cnn(Cc3cccc4nn[nH]c34)c(=O)c21 [Compound 202]", "recordedEndpoint": "EC50", "dataValue": "< 0.3 µM"}

# EC50 lookup, item Cn1c2nc(Cc3c[nH]nn3)sc2c2cnn(Cc3cccc(OC(F)(F)F)c3)c(=O)c21 [Compound 290] < 0.3 µM

# EC50 lookup, item Cn1c2nc(Cc3cc[nH]n3)sc2c2cnn(Cc3ccc4scnc4c3)c(=O)c21 [Compound 237] < 0.3 µM

# EC50 lookup, item Cn1c2nc(Cc3cc[nH]n3)sc2c2cnn(Cc3ccc4c(c3)OCO4)c(=O)c21 [Compound 226] < 0.3 µM

# EC50 lookup, item Cn1ccc(Cn2ncc3c4sc(CCc5cc[nH]n5)nc4n(C)c3c2=O)n1 [Compound 393] < 0.3 µM
